- testedOn: UniProt:P97612
- Sequence (P97612 whole entry): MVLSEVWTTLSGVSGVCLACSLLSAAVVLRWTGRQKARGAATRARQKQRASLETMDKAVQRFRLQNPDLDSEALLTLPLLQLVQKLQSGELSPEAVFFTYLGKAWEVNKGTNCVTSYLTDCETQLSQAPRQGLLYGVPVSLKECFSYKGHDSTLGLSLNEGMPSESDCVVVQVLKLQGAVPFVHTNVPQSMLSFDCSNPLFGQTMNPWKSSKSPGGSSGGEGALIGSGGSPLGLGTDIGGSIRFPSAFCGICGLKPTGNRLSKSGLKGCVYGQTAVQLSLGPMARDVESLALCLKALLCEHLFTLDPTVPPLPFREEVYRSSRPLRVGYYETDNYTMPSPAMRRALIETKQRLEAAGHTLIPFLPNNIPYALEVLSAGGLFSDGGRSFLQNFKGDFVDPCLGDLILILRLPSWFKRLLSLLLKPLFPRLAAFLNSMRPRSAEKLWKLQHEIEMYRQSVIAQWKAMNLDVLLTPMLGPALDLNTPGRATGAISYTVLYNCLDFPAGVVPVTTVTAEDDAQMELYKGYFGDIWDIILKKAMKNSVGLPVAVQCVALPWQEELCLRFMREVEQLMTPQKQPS
- protocolSummary: Tested for hydrolysis by rat brain microsomal anandamide amidohydrolase (AAH).
propertyMeasured: Rate of hydrolysis (nM min-1 mg-1)

chemicalSmiles	Rate of hydrolysis (nM min-1 mg-1)
CCCCCCCCCCCCCCCCCC(=O)NCCO	0.2
CCCCC/C=C\C/C=C\C/C=C\C/C=C\CCCC(=O)N(CCO)CCO	0
CCCCC/C=C\C/C=C\C/C=C\C/C=C\CCCC(=O)N[C@@H](C)CC	0.082
CCCCCCCC/C=C\CCCCCCCC(=O)N[C@@H](C)CO	0.47
CCCCC/C=C\C/C=C\C/C=C\C/C=C\CCCC(=O)N(C)CCO	0

Problem: Form field - read-out: Rate of hydrolysis (nM min-1 mg-1); system: UniProt:P97612; submitted item: CCCCC/C=C\C/C=C\C/C=C\C/C=C\CCCC(=O)OC(CO)CO
Solution: 3.27

Problem: Form field - read-out: Rate of hydrolysis (nM min-1 mg-1); system: UniProt:P97612; submitted item: CCCCC/C=C\C/C=C\CCCCCCCC(=O)N[C@@H](C)CO
Solution: 0.27

Problem: Form field - read-out: Rate of hydrolysis (nM min-1 mg-1); system: UniProt:P97612; submitted item: CCCCC/C=C\C/C=C\C/C=C\C/C=C\CCCC(=O)NCCO
Solution: 1.3

Problem: Form field - read-out: Rate of hydrolysis (nM min-1 mg-1); system: UniProt:P97612; submitted item: CCCCC/C=C\C/C=C\C/C=C\C/C=C\CCCC(=O)NCCF
Solution: 1.65
